Task for the reader: assign each of the following compounds its reported kcat/Km.
- System: Escherichia coli
- test-description: Ratio of Kcat to Km for Escherichia coli DH5alpha beta-lactamase TEM-12
- Parameters: unit not given here
Reply: number alone, nothing else.

Incoming: Retrieve kcat/Km measured for CC(=O)OCC1=C(C(=O)O)N2C(=O)[C@@H](NC(=O)Cc3cccs3)[C@H]2SC1 and print it.
Outgoing: 0.02

Incoming: Retrieve kcat/Km measured for CC1(C)S[C@@H]2[C@H](NC(=O)[C@H](N)c3ccc(O)cc3)C(=O)N2[C@H]1C(=O)O and print it.
Outgoing: 8

Incoming: Retrieve kcat/Km measured for CCN1CCN(C(=O)N[C@@H](C(=O)N[C@@H]2C(=O)N3[C@@H]2SC(C)(C)[C@@H]3C(=O)O)c2ccccc2)C(=O)C1=O and print it.
Outgoing: 6

Incoming: Retrieve kcat/Km measured for CC1(C)S[C@@H]2[C@H](NC(=O)Cc3ccccc3)C(=O)N2[C@H]1C(=O)O and print it.
Outgoing: 11

Incoming: Retrieve kcat/Km measured for CC1(C)S[C@@H]2[C@H](NC(=O)[C@H](C(=O)O)c3ccsc3)C(=O)N2[C@H]1C(=O)O and print it.
Outgoing: 1.6

Incoming: Retrieve kcat/Km measured for CO/N=C(\C(=O)N[C@@H]1C(=O)N2C(C(=O)O)=C(COC(C)=O)CS[C@H]12)c1csc(N)n1 and print it.
Outgoing: 0.03

Incoming: Retrieve kcat/Km measured for CC(C)(O/N=C(\C(=O)N[C@@H]1C(=O)N2C(C(=O)[O-])=C(C[n+]3ccccc3)CS[C@H]12)c1csc(N)n1)C(=O)O and print it.
Outgoing: 0.04

Incoming: Retrieve kcat/Km measured for C[C@H]1[C@H](NC(=O)/C(=N\OC(C)(C)C(=O)O)c2csc(N)n2)C(=O)N1S(=O)(=O)O and print it.
Outgoing: 0.008

This collection of values is drawn from ChEMBL document CHEMBL1137638.
